target: GIST430/654 cell line expressing mutated constitutively active cKIT receptor tyrosine kinase (Δ560-576 deletion and V654A point mutation) (Homo sapiens, UniProt P10721, DEL560-576/V654A); construct: endogenous in cells; assay: Cellular cKIT autophosphorylation (phospho-Y307-cKIT, Luminex bead assay) in GIST430/654 cells; details: compounds 45 min, read-out: GIST 430/654 IC50
Sequence (P10721 with tags, fused parts or gaps DEL560-576/V654A): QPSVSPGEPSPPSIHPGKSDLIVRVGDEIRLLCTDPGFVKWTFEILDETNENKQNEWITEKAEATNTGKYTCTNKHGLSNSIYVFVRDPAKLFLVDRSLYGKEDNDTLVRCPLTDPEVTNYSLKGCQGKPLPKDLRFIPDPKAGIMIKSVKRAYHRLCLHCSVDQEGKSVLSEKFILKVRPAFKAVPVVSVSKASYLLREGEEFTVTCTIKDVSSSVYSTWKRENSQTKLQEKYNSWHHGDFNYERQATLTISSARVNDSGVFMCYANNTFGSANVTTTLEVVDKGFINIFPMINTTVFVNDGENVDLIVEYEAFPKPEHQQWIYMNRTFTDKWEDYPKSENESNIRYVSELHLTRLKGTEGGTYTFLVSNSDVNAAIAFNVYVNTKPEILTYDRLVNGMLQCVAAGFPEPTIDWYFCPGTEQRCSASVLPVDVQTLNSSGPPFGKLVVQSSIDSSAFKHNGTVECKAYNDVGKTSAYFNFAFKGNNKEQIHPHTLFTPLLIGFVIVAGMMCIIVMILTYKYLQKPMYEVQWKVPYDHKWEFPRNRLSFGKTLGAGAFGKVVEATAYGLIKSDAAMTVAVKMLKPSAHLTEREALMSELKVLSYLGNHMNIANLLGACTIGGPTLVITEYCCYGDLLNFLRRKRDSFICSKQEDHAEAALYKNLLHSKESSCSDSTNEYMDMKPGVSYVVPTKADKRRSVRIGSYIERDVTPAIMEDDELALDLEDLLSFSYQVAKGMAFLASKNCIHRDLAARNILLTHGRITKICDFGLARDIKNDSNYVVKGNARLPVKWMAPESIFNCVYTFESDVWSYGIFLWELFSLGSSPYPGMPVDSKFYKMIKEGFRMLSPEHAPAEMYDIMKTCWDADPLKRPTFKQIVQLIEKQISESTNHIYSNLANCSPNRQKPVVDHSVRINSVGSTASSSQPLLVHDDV
IC50 under 100 nM gets t, anything at or over 100 nM gets f.

Previously resolved entries follow.
smilesRepresentation: Cn1cc(-c2ccc(CNc3cc(-c4cnc5cc(OCCN6CC(F)C6)ccn45)ncn3)cc2)cn1
labelValue: t
--
smilesRepresentation: Cn1cc(-c2ccc(CNc3cc(-c4cnc5cc(OCCN6CCC(F)(F)C6)ccn45)ncn3)cc2)cn1
labelValue: t
--
smilesRepresentation: Cn1cc(-c2ccc(CNc3cc(-c4cnc5cc(OCCN6CCC6)ccn45)ncn3)cc2)cn1
labelValue: t
--
smilesRepresentation: CC1(F)CCN(CCCOc2ccn3c(-c4cc(NCc5ccc(-c6cocn6)cc5)ncn4)cnc3c2)CC1
labelValue: t

## Task Hello, I'm reviewing records and need to know if IC50 of COc1ccn2c(-c3cc(NCc4ccc(-c5cnn(C)c5)s4)ncn3)cnc2c1 is below 100 nM. Could you check?
## Result f

## Task # TODO verify IC50 < 100 nM strictly for this molecule: F[C@H]1CCN(c2ccc(CNc3cc(-c4cnc5ccccn45)ncn3)cn2)C1
## Result f
